- Target System: TrkB (Homo sapiens (Human), UniProt Q16620 32-430)
- Sequence (Q16620 32-430 limits assumed): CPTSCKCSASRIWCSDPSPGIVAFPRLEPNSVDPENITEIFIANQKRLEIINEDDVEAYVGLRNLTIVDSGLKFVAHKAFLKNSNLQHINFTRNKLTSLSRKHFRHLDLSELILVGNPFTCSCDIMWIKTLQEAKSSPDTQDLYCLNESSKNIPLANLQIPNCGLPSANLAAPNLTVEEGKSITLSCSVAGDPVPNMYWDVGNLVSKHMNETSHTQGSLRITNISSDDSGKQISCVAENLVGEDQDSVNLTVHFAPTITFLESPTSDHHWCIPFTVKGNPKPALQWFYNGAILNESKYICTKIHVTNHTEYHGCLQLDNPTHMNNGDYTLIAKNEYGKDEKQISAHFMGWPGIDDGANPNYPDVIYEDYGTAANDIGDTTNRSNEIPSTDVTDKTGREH
- Test Description: koff of Fab at 25 C; T1/2=Log2/koff
Test Readout: T1/2 (min)
// units = min; emit number, no label

*Q* What value of measured T1/2 is listed for 12-E9 (Fab, V domains shown, Fab) VH: QVQLVQSGAEVKKPGASVKVSCKASGYTFTNYDIIWVRQAPGQGLEWMGYINPYNDGTKYNEKFKYRVTMTRDTSTSTVYMELSSLRSEDTAVYYCARLLKYRRFRYYAIDYWGQGTTVTVSS VL: DIQMTQSPSSLSASVGDRVTITCRASESVYNNLAWYQQKPGKAPKLLIYAASNLQSGVPSRFSGSGSGTDFTFTISSLQPEDIATYYCQHFWGSPFTFGQGTKLEIK ?
*A* 3.5

*Q* What value of measured T1/2 is listed for 10-G2 (Fab, V domains shown, Fab) VH: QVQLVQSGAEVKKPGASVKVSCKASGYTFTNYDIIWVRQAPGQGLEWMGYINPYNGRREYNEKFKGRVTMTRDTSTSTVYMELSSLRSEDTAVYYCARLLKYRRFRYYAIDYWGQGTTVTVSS VL: DIQMTQSPSSLSASVGDRVTITCRASEAVYSNLAWYQQKPGKAPKLLIYAASNLQSGVPSRFSGSGSGTDFTFTISSLQPEDIATYYCQHFWGSPFTFGQGTKLEIK ?
*A* 5.2

Recorded values, source patent US20100196390A1.
